Biological target: Akt3 human enzyme (Homo sapiens, UniProt Q9Y243)
Construct: purchased Upstate Chemicon 14-502
Sequence (Q9Y243 whole entry): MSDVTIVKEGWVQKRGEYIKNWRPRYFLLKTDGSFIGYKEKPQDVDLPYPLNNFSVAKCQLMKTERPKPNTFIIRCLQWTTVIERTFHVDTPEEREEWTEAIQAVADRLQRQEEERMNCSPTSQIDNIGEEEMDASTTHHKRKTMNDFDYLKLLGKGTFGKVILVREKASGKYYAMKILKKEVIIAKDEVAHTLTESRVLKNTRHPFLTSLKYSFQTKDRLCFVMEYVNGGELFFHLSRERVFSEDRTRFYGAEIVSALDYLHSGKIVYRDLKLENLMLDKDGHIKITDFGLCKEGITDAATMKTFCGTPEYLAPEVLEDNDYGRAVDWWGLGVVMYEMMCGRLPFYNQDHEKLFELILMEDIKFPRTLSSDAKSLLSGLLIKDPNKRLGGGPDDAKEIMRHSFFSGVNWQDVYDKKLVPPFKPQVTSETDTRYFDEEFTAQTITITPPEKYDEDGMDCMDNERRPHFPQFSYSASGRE
Assay: Akt3 inhibition assay (IMAP FP);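 also: kinase reaction run 60 min at room temperature after 30 µM ATP start, phosphorylated substrate captured on IMAP beads and read as fluorescence polarization (mP)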
Assay type: biochemical
Details: 30 μM ATP; Ki=IC50/(1+([ATP Challenge]/EC50 ATP)); read-out: Akt3 Ki, Avg
Ki listing for selected compounds.

[
  {
    "Molecule Smiles": "CSc1ccc(CN2CCC[C@H](Nc3ccc4[nH]ncc4c3)C2)cc1",
    "Ki": "5.32 µM"
  },
  {
    "Molecule Smiles": "Cc1ccc(CN2CCC[C@@H](Nc3ccc4[nH]ncc4c3)C2)cc1O",
    "Ki": "0.157 µM"
  },
  {
    "Molecule Smiles": "c1cc(N[C@@H]2CCN(Cc3ccc(C4CC4)cc3)C2)c2ccncc2c1",
    "Ki": "4.12 µM"
  },
  {
    "Molecule Smiles": "NC(=O)Cn1ccc2cc(CN3CCC[C@H](Nc4ccc5[nH]ncc5c4)C3)ccc21",
    "Ki": "4.14 µM"
  },
  {
    "Molecule Smiles": "Fc1ccc(CN2CCC[C@H](Nc3ccc4[nH]ncc4c3)C2)cc1",
    "Ki": "4.31 µM"
  },
  {
    "Molecule Smiles": "CCS(=O)(=O)Nc1cccc(CN2CCC[C@H](Nc3ccc4[nH]ncc4c3)C2)c1",
    "Ki": "7.87 µM"
  },
  {
    "Molecule Smiles": "Cc1ccc(CN2CCC[C@H](Nc3ccc4[nH]ncc4c3)C2)cc1NS(C)(=O)=O",
    "Ki": "2.63 µM"
  },
  {
    "Molecule Smiles": "Brc1cccc(CN2CCC[C@H](Nc3ccc4[nH]ncc4c3)C2)c1",
    "Ki": "9.01 µM"
  },
  {
    "Molecule Smiles": "Clc1ccc(CN2CC[C@@H](Nc3cccc4cnccc34)C2)cc1",
    "Ki": "0.658 µM"
  },
  {
    "Molecule Smiles": "Clc1ccc(CN2CCC[C@@H](Nc3ccc4[nH]ncc4c3)C2)cc1",
    "Ki": "0.0818 µM"
  },
  {
    "Molecule Smiles": "NS(=O)(=O)c1cccc(CN2CCC[C@@H](Nc3ccc4[nH]ncc4c3)C2)c1",
    "Ki": "1.6 µM"
  },
  {
    "Molecule Smiles": "CCS(=O)(=O)Nc1cc(CN2CC[C@@H](Nc3cccc4cnccc34)C2)ccc1C",
    "Ki": "0.415 µM"
  },
  {
    "Molecule Smiles": "CS(=O)(=O)Nc1cccc(CN2CCC[C@@H](Nc3ccc4[nH]ncc4c3)C2)c1",
    "Ki": "1.82 µM"
  },
  {
    "Molecule Smiles": "Cc1ccc(CN2CCC[C@H](Nc3ccc4[nH]ncc4c3)C2)cc1O",
    "Ki": "0.709 µM"
  },
  {
    "Molecule Smiles": "c1cc2cc(CN3CCC[C@H](Nc4ccc5[nH]ncc5c4)C3)ccc2[nH]1",
    "Ki": "7.4 µM"
  },
  {
    "Molecule Smiles": "OCCOc1cccc(CN2CC[C@@H](Nc3cccc4cnccc34)C2)c1",
    "Ki": "1.99 µM"
  },
  {
    "Molecule Smiles": "CCOC(=O)COc1cccc(CN2CCC[C@H](Nc3ccc4[nH]ncc4c3)C2)c1",
    "Ki": "10.6 µM"
  },
  {
    "Molecule Smiles": "Cc1cccc(CN2CCC[C@H](Nc3ccc4[nH]ncc4c3)C2)c1",
    "Ki": "9.33 µM"
  },
  {
    "Molecule Smiles": "c1cc2cc(CN3CCC[C@H](Nc4ccc5[nH]ncc5c4)C3)ccc2o1",
    "Ki": "3.18 µM"
  }
]
